- target: UniProtKB P0DTD1
- testProtocol: SARS-CoV-2 3C-like (3CL) protease fluorescence assay (FRET)
- reportedConditions: recombinant SARS-CoV-2 3CL-protease 10 nM, 30 min preincubation, peptide substrate, duplicate
pIC50: −log10 of the molar value.
pIC50 values, listed per item

Solved entries:
compound	pIC50
CC(C)C[C@@H](C(=O)N1C[C@]2(C[C@H]1C#N)C(=O)Nc1ccccc12)N(C)C(=O)CC(=O)OC(C)(C)C [Compound 5]	> 7.00
CC(C)C[C@@H](C(=O)N1C[C@]2(C[C@H]1C#N)C(=O)Nc1ccccc12)N(C)C(=O)CC(=O)N[C@@H]1CC[C@H](O)C1 [Compound 45]	> 7.00
Cc1cccc(C)c1NC(=O)C(C)(C)C(=O)N[C@@H](CC(C)(C)C)C(=O)N1C[C@]2(C[C@H]1C#N)C(=O)Nc1ccccc12 [Compound 12]	> 7.00

Query: Identify the reported pIC50 for the following entry. CC(C)C[C@@H](C(=O)N1C[C@]2(C[C@H]1C#N)C(=O)Nc1ccccc12)N(C)C(=O)CC(=O)N[C@H]1CC[C@H](O)C1 [Compound 46]
Reply: > 7.00

Query: Find the measured pIC50 of CC(C)C[C@@H](C(=O)N1C[C@]2(C[C@H]1C#N)C(=O)Nc1ccccc12)N(C)C(=O)CC(=O)N[C@@H](C)c1ccccc1 [Compound 20] and report it.
Reply: 6.00 to 7.00

Query: Report pIC50, nothing else, for this compound: CC(C)C[C@@H](C(=O)N1C[C@]2(C[C@H]1C#N)C(=O)Nc1ccccc12)N(C)C(=O)CC(=O)N[C@@H]1CCC[C@H]1O [Compound 43]
Reply: > 7.00
